# TESTED_TARGET: UniProt P00760
# Sequence (P00760 whole entry): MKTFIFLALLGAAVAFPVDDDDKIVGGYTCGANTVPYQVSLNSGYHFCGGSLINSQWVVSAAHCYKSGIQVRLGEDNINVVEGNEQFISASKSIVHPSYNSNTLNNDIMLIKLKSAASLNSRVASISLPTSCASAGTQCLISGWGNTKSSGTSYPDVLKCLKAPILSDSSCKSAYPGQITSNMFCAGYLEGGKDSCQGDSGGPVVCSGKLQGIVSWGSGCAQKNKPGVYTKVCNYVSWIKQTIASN
pKi: −log10 of the molar value.
Collected from the literature: pKi of various compounds toward UniProt P00760.
Answer false (0) if pKi is under 6, and true (1) if it is 6 or more.

CCCC(=O)N1CCN(C(=O)C(Cc2cccc(C(=N)N)c2)NS(=O)(=O)c2ccc3ccccc3c2)CC1 (stereo not drawn) : true (1)
CC(=N)N1CCC(Oc2ccc3c(c2)nc(CCC(=O)O)n3Cc2ccc3ccc(C(=N)N)cc3c2)CC1 : true (1)
CNC(=O)[C@H](Cc1cccc(C(=N)N)c1)NS(=O)(=O)c1c(C)c(C)c2c(c1C)CCC(C)(C)O2 : false (0)
CC(C)(C)OC(=O)N[C@@H](C(=O)N1CCC[C@H]1C(=O)NCC#Cc1c[nH]cn1)C(c1ccccc1)c1ccccc1 : false (0)
CC(C)(C)OC(=O)N[C@@H](C(=O)N1CCC[C@H]1C(=O)NCC#Cc1cnc[nH]1)C(C1CCCCC1)C1CCCCC1 : false (0)
N=C(N)c1ccc2ccc(CN(CCc3ccc(F)cc3)C(=O)c3cccc4ccccc34)cc2c1 : true (1)
CC1CCCCN1CCCN(Cc1ccc2ccc(C(=N)N)cc2c1)C(=O)c1cccc2ccccc12 (stereo not drawn) : true (1)

----------
# TESTED_TARGET: Serine protease 1 (Bos taurus, UniProt P00760)
# Sequence (P00760 whole entry): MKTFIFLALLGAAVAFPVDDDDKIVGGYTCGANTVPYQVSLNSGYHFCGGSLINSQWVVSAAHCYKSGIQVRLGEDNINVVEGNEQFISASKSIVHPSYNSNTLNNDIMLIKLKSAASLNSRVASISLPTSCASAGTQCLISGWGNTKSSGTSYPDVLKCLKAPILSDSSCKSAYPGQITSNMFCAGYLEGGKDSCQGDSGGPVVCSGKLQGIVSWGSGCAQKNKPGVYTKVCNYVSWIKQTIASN
pKi: −log10 of the molar value.
Collected from the literature: pKi of various compounds toward Serine protease 1 (Bos taurus, UniProt P00760).
READOUT: pKi

CC(=N)N1CCC(Oc2ccc(NC/C=C/c3cc(C(=N)N)ccc3O)cc2C(F)(F)F)CC1 : 6.70
CCC(C)(C)C(NC(=O)[C@@H]1CCCN1C(=O)[C@H](Cc1ccc2ccccc2c1)NC(=O)OCc1ccccc1)B1O[C@@H]2CC3CC(C3(C)C)[C@]2(C)O1 (some centres not stated) : 5.62
COc1ccc2ccc(S(=O)(=O)N(C)[C@H]3CCN(Cc4csc(C(=N)N)c4)C3=O)cc2c1 : 6.28
N=C(N)NCCC[C@@H]1NC(=O)[C@@H]2CCCCN2C(=O)[C@@H](Cc2ccccc2)NC(=O)CCCCCCCNC(=O)C1=O (single isomer, unassigned) : 7.18
N=C(N)c1cccc(Oc2ccc(NC(=O)c3ccccc3)c(Oc3cccc(C(=N)N)c3)n2)c1 : 6.59
CCOC(=O)c1cc(Oc2cccc(C(=N)N)c2)nc(Oc2cccc(C(=N)N)c2)c1 : 6.10
N=C(N)N1CCC[C@H](CNC(=O)[C@@H](Cc2c[nH]c3ccccc23)NS(=O)(=O)c2ccc3ccccc3c2)C1 : 3.89
